The following molecules are listed with their measured IC50 values.
target: Factor D (Homo sapiens)

Consider the worked cases shown below.
MOLECULE	IC50
CO[C@H]1C[C@@H](C(=O)Nc2cccc(Br)n2)N(C(=O)Cn2c3ccc(C(F)(F)F)cc3c3c(N)ncnc32)C1 [Compound 247d]	0.1 to 1 µM
COc1cc([N+](=O)[O-])cc2c3c(N)ncnc3n(CC(=O)N3[C@H](C(=O)Nc4cccc(Br)n4)C[C@@]4(C)C[C@@H]34)c12 [Compound 243a]	< 0.1 µM
Nc1ncnc2c1c(I)cn2CC(=O)N1C[C@H](F)C[C@H]1C(=O)NCc1cccc(Cl)c1F [Compound 148d]	0.1 to 1 µM
Nc1ncnc2c1c1cccc(Br)c1n2CC(=O)N1[C@@H]2C[C@@H]2C[C@H]1C(=O)Nc1cccc(Br)n1 [Compound 35f]	< 0.1 µM

Enquiry: Requested field: IC50. Item: Cc1ccc(Br)nc1NC(=O)[C@@H]1C[C@@H](F)CN1C(=O)Cn1c2ccc(C(F)(F)F)cc2c2c(N)ncnc21 [Compound 14a]
Return: < 0.1 µM

Enquiry: May I ask what IC50 has been recorded for Cc1cc(O)cc2c3c(N)ncnc3n(CC(=O)N3[C@H](C(=O)Nc4cccc(Br)n4)C[C@@]4(C)C[C@@H]34)c12 [Compound 265a] ?
Return: < 0.1 µM

Enquiry: Form field: reported IC50 of Nc1ncnc2c1ncn2CC(=O)N1CCS[C@H]1C(=O)NCc1cccc(Cl)c1F [Compound 105b]
Return: 0.1 to 1 µM

* * *

target: Factor D (Homo sapiens, UniProt P00746)
Sequence (P00746 26-253): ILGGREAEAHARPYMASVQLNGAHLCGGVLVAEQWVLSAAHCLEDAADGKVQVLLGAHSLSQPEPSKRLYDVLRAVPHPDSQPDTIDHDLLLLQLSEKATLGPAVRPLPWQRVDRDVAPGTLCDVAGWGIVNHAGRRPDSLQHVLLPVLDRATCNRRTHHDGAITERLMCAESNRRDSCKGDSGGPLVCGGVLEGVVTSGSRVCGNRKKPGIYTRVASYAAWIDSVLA
pIC50: −log10 of the molar value.
READOUT: pIC50

Examples with their reported pIC50 follow.
COMPOUND	pIC50
Cc1ccc2c(c1)c1c(N)ncnc1n2C(C)C(=O)N1[C@@H]2C[C@@H]2C[C@H]1C(=O)Nc1cccc(Br)n1 (single isomer, unassigned) [Compound 22c]	< 6.00
Cc1ncc(-c2cc(C)c3c(c2)c2c(N)ncnc2n3CC(=O)N2[C@@H]3C[C@@H]3C[C@H]2C(=O)Nc2cccc(Br)n2)cn1 [Compound 308c]	> 7.00
Cc1ccc(-c2ccc3c(c2)c2c(N)ncnc2n3CC(=O)N2[C@@H]3C[C@@H]3C[C@H]2C(=O)Nc2cccc(Br)n2)cc1 [Compound 205c]	> 7.00
Cc1cc(-c2ccccc2)cc2c3c(N)ncnc3n(CC(=O)N3[C@@H]4C[C@@H]4C[C@H]3C(=O)Nc3cccc(Br)n3)c12 [Compound 229c]	> 7.00

Please look at the following compound next.
Enquiry: Observed pIC50 on Factor D (Homo sapiens, UniProt P00746) for C[C@@]12C[C@@H](C(=O)Nc3cccc(Br)n3)N(C(=O)Cn3c4ccc(-c5ccc(F)cc5)cc4c4c(N)ncnc43)[C@@H]1C2 [Compound 337a] , please.
Return: > 7.00

* * *

Hi! I'm sharing some IC50 results obtained with Factor D (Homo sapiens).

Examples from the recorded data:
COMPOUND	IC50
C[C@@]12C[C@@H](C(=O)Nc3cccc(Br)n3)N(C(=O)Cn3c4ccc([N+](=O)[O-])cc4c4c(N)ncnc43)[C@@H]1C2 [Compound 202a]	< 100 nM
Nc1c(C(=O)O)cnc2c1ccn2CC(=O)N1C[C@H](F)C[C@H]1C(=O)NCc1cccc(Cl)c1F [Compound 151a]	100 to 1000 nM

Okay, next one:
Enquiry: Reported IC50 for Factor D (Homo sapiens), given Cc1cc2c(cc1Br)c1c(N)ncnc1n2CC(=O)N1[C@@H]2C[C@@H]2C[C@H]1C(=O)Nc1cccc(Br)n1 [Compound 379h] ?
Return: < 100 nM

* * *

Quick record: IC50, UniProt:P00746.

See these solved cases before continuing.
MOLECULE	IC50
Cc1cc2c3c(N)ncnc3n(CC(=O)N3[C@H](C(=O)Nc4cccc(Br)n4)C[C@@]4(C)C[C@@H]34)c2cc1F [Compound 385a]	< 100 nM
COc1ccc2c3c(N)ncnc3n(CC(=O)N3[C@H](C(=O)Nc4cccc(Br)n4)C[C@@]4(C)C[C@@H]34)c2c1 [Compound 37a]	< 100 nM

# input for lookup
Enquiry: State its IC50 on UniProt:P00746: C[C@@]12C[C@@H](C(=O)Nc3cncc(Br)n3)N(C(=O)Cn3c4ccc(C(F)(F)F)cc4c4c(N)ncnc43)[C@@H]1C2 [Compound 261d]
Return: < 100 nM

* * *

molecular target: Factor D (Homo sapiens)
READOUT: IC50

Please review the entries below; each comes with its answer.
COMPOUND	IC50
NC(=O)c1cn(CC(=O)N2C[C@H](F)C[C@H]2C(=O)NCc2cccc(Cl)c2F)c2ncnc(N)c12 [Compound 140a]	> 1000 nM
C[C@@]12C[C@@H](C(=O)Nc3cccc(Br)n3)N(C(=O)Cn3c4cc(-c5ccccc5)ccc4c4c(N)ncnc43)[C@@H]1C2 [Compound 228a]	< 100 nM

Enquiry: Any idea what IC50 came out for C[C@@]12C[C@@H](C(=O)Nc3cccc(Br)n3)N(C(=O)Cn3c4cc(C(F)(F)F)ccc4c4c(N)ncnc43)[C@@H]1C2 [Compound 199a] on Factor D (Homo sapiens)?
Return: < 100 nM

* * *

What follows is a record of IC50 for Factor D (Homo sapiens).

These recorded examples may help you get a feel for the data.
MOLECULE	IC50
COc1cc2c(cc1C(F)(F)F)c1c(N)ncnc1n2CC(=O)N1[C@H](C(=O)Nc2cccc(Br)n2)C[C@@]2(C)C[C@@H]12 [Compound 368a]	< 0.1 µM
Cc1ccc(Br)nc1NC(=O)[C@@H]1C[C@H]2C[C@H]2N1C(=O)Cn1c2ccc(C(F)(F)F)cc2c2c(N)ncnc21 [Compound 15a]	< 0.1 µM
Cc1nc(C(F)(F)F)cc2c3c(N)ncnc3n(CC(=O)N3[C@@H]4C[C@@H]4C[C@H]3C(=O)Nc3cccc(Br)n3)c12 [Compound 346g]	< 0.1 µM
COc1cc(F)cc2c3c(N)ncnc3n(CC(=O)N3[C@H](C(=O)Nc4cccc(Br)n4)C[C@@]4(C)C[C@@H]34)c12 [Compound 281a]	< 0.1 µM
Nc1ncnc2c1c1cc([N+](=O)[O-])ccc1n2CC(=O)N1[C@@H]2C[C@@H]2C[C@H]1C(=O)Nc1cccc(Br)n1 [Compound 188g]	< 0.1 µM

Enquiry: IC50 lookup needed for Nc1ncnc2c1c(-c1ccccc1Cl)cn2CC(=O)N1C[C@H](F)C[C@H]1C(=O)NCc1cccc(Cl)c1F [Compound 136a] , thanks.
Return: > 1 µM

Enquiry: Form field: reported IC50 of Cc1cc(Br)cc2c3c(N)ncnc3n(CC(=O)N3[C@@H]4C[C@@H]4C[C@H]3C(=O)Nc3cccc(Br)n3)c12 [Compound 192g]
Return: < 0.1 µM

Enquiry: // query IC50 value for entry COc1cc(Cl)cc2c3c(N)ncnc3n(CC(=O)N3[C@H](C(=O)Nc4cccc(Br)n4)C[C@@]4(C)C[C@@H]34)c12 [Compound 239a]
Return: < 0.1 µM

Enquiry: Please give the measured IC50 for this molecule: C[C@@]12C[C@@H](C(=O)NCc3cccc(Cl)c3F)N(C(=O)Cn3cnc4c(N)ncnc43)[C@@H]1C2 [Compound 67c]
Return: 0.1 to 1 µM

Enquiry: For the molecule C[C@@]12C[C@@H](C(=O)Nc3cccc(Br)n3)N(C(=O)Cn3c4ccc(OC(F)(F)F)cc4c4c(N)ncnc43)[C@@H]1C2 [Compound 334a] , what IC50 is on record?
Return: < 0.1 µM

* * *

pIC50: −log10 of the molar value.
For reference, pIC50 measured on Factor D (Homo sapiens):

Some compounds with recorded pIC50:
COMPOUND	TEST_TARGET	pIC50
Cc1cccc2c3c(N)ncnc3n(CC(=O)N3[C@H](C(=O)Nc4cccc(Br)n4)C[C@@]4(C)C[C@@H]34)c12 [Compound 55a]	Factor D (Homo sapiens)	> 7.00
Cc1ccc(Br)nc1NC(=O)[C@@H]1C[C@@]2(C)C[C@H]2N1C(=O)Cc1ccc2c(N)ncnn12 [Compound 72a]	Factor D (Homo sapiens)	6.00 to 7.00
Cc1cc(Br)cc2c3c(N)ncnc3n(CC(=O)N3[C@H](C(=O)Nc4cccc(Br)n4)C[C@@]4(C)C[C@@H]34)c12 [Compound 193a]	Factor D (Homo sapiens)	> 7.00
Cc1ccc2c(c1)c1c(N)ncnc1n2C(C)C(=O)N1[C@@H]2C[C@@H]2C[C@H]1C(=O)Nc1cccc(Br)n1 (single isomer, unassigned) [Compound 22d]	Factor D (Homo sapiens)	< 6.00
Cc1cc(O)cc2c3c(N)ncnc3n(CC(=O)N3[C@@H]4C[C@@H]4C[C@H]3C(=O)Nc3cccc(Br)n3)c12 [Compound 282a]	Factor D (Homo sapiens)	> 7.00

Next compound, pIC50 to be filled in.
Enquiry: Lookup: pIC50 / Factor D (Homo sapiens) / Nc1ncnc2c1cnn2CC(=O)N1CCC[C@H]1C(=O)Nc1cccc(Br)n1 [Compound 77b]
Return: < 6.00

// data source = patent US12679843B2
